Below, each entry is listed alongside its reported % Remaining 24 h.
test: Ex-vivo mouse plasma stability study of ^177Lu-labeled compounds; assay type: in vitro ADME; settings: 37° C., 24 h
Report only the number, with the unit % understood.

// solved cases for % Remaining 24 h follow
>>> readout_number("O=C(O)CC[C@H](NC(=O)N[C@@H](CCCCNC(=O)[C@H](Cc1ccc2ccccc2c1)NC(=O)[C@H]1CC[C@H](CNC(=O)[C@H](CCCCNC(=O)CN2CCN(CC(=O)O)CCN(CC(=O)O)CCN(CC(=O)O)CC2)NC(=O)[C@H](CCC(=O)O)NC(=O)CCCc2ccc(I)cc2)CC1)C(=O)O)C(=O)O [Example C-2, 4pIBA-Glu-Lys(DOTA)-Trx-2NaI-eKuE, reference compound]")
100
>>> readout_number("O=C(O)CCCCCCCCCCCCCCCCC(=O)N[C@@H](CCC(=O)NCCOCCOCC(=O)NCCOCCOCC(=O)N[C@@H](CCCCNC(=O)CCCOC(=O)CNC(=O)CNC(=O)CNC(=O)CNC(=O)CN1CCN(CC(=O)O)CCN(CC(=O)O)CCN(CC(=O)O)CC1)C(=O)NCCOCCOCC(=O)NC[C@H]1CC[C@H](C(=O)N[C@@H](Cc2ccc3ccccc3c2)C(=O)NCCCC[C@H](NC(=O)N[C@@H](CCC(=O)O)C(=O)O)C(=O)O)CC1)C(=O)O")
81.9
>>> readout_number("O=C(O)CC[C@H](NC(=O)N[C@@H](CCCCNC(=O)[C@H](Cc1ccc2ccccc2c1)NC(=O)[C@H]1CC[C@H](CNC(=O)[C@H](CCCCNC(=O)CN2CCN(CC(=O)O)CCN(CC(=O)O)CCN(CC(=O)O)CC2)NC(=O)CCCOC(=O)CNC(=O)[C@H](CCC(=O)O)NC(=O)CCCc2ccc(I)cc2)CC1)C(=O)O)C(=O)O")
76.5

Let us examine a further case.
Find the measured % Remaining 24 h of O=C(O)CC[C@H](NC(=O)N[C@@H](CCCCNC(=O)[C@H](Cc1ccc2ccccc2c1)NC(=O)[C@H]1CC[C@H](CNC(=O)[C@H](CCCCNC(=O)CCCOC(=O)CNC(=O)CN2CCN(CC(=O)O)CCN(CC(=O)O)CCN(CC(=O)O)CC2)NC(=O)[C@H](CCC(=O)O)NC(=O)CCCc2ccc(I)cc2)CC1)C(=O)O)C(=O)O [Example I-3, 4pIBA-Glu-Lys(-ESL1-DOTA)-Trx-2NaI-eKuE] and report it.
13.0
